assay: E. coli DRC41 culture turbidity changes, primary screen, E. coli filamentation inducer project, strain DRC41, OD650, 48 h (AID 1152);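 also: E. coli MC1000 strain DRC41 lacking acrAB efflux pump and sulA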; details: E. coli DRC41 (acrAB sulA), higher = more signal, called active from +8 up or from −8 down
Classification field: enter Yes for z-score values not below -0.3, No for values below it.

ENTRY_SMILES	ASSIGNED_CATEGORY
COC(=O)C(CC#Cc1ccc2c(c1)[C@]1(C(=O)N2)[C@H](C(=O)N2CCN(c3ncccn3)CC2)[C@H]2C(=O)O[C@H](c3ccccc3)[C@H](c3ccccc3)N2[C@@H]1c1ccc(O)cc1)C(=O)OC	No
C=CC[C@H](OC(=O)Nc1ccc(SC)cc1)c1ccc(O)c(F)c1	No
O=C1C[C@@](C(=O)NCC(F)(F)F)(c2ccc([N+](=O)[O-])cc2)[C@@H](c2ccc(CO)cc2I)N1CC12CC3CC(CC(C3)C1)C2	Yes
O=C1O[C@H](c2ccccc2)[C@H](c2ccccc2)N2[C@H]1[C@@H](C(=O)O)[C@]1(C(=O)Nc3ccc(C#CC4(O)CCCCCC4)cc31)[C@H]2c1ccccc1OCCO	Yes
COc1cccc(C)c1NC(=O)O[C@H]1[C@H](OC(=O)Nc2ccc3c(c2)OCO3)[C@H](OC(=O)Nc2ccc3c(c2)OCO3)[C@@H](OC)O[C@@H]1CO	No
Cc1ccc(S[C@]2(C(=O)NC3CC3)CC(=O)N(C3Cc4ccccc4C3)[C@@H]2c2ccc(CO)cc2I)cc1	Yes
COC(=O)[C@]1(Cc2ccccc2N=[N+]=[N-])N=C(c2ccc(OCCCO)cc2)O[C@@H]1c1ccccc1CN=[N+]=[N-]	No
COC(=O)C(CC#Cc1ccc2c(c1)[C@]1(C(=O)N2)[C@H](C(=O)N2CCCCCCC2)[C@H]2C(=O)O[C@H](c3ccccc3)[C@H](c3ccccc3)N2[C@@H]1c1ccc(OCCO)cc1)C(=O)OC	Yes
Cc1ccc(S[C@]2(C(=O)NCC(C)C)CC(=O)N(C(C)C)[C@@H]2c2ccc(CO)cc2I)cc1	Yes
CC(=O)NCCCC[C@@H]1NC(=O)[C@H]2C[C@@H](C(=O)O)[C@@H](c3cccc(OCCO)c3)N2C1=O	No
COCCOC(=O)N1C(=O)[C@@]2(c3cc(C#CCC(C(=O)OC)C(=O)OC)ccc31)[C@H](c1ccc(O)cc1)N1[C@H](c3ccccc3)[C@H](c3ccccc3)OC(=O)[C@H]1[C@@H]2C(=O)N1CCc2cc(OC)c(OC)cc2C1	Yes
C#CCN(C(=O)OC(C)(C)C)[C@H](CO)c1ccccc1	No
[N-]=[N+]=NCc1ccccc1[C@H]1OC(c2ccc(OCCCO)cc2)=N[C@@]1(CCS(=O)(=O)c1ccccc1)C(=O)NCCN1CCOCC1	Yes
